target: HLA-A*02:19; experiment: IEDB peptide-MHC binding, purified MHC/direct/fluorescence; filed as Kd, often an IC50 or EC50 that approximates it; bounds were set here for any values at or beyond the usual limits of such assays; conditions: source organism: Lechiguanas virus
ATTRIBUTE_MEASURED: Kd

Input: What does the data say about its Kd? Entry: ETESATLFT
Output: ≥ 20 µM

###

molecular target: HLA-A*02:12; test: IEDB peptide-MHC binding, purified MHC/competitive/fluorescence; filed as Kd, often an IC50 or EC50 that approximates it; bounds were set here for any values at or beyond the usual limits of such assays; conditions: source organism: human gammaherpesvirus 4
ATTRIBUTE_MEASURED: Kd

Input: What does the data say about its Kd? Entry: CLGGLLTMV
Output: ≤ 1 nM

###

biological target: HLA-A*69:01; assay: IEDB peptide-MHC binding, purified MHC/direct/fluorescence; filed as Kd, often an IC50 or EC50 that approximates it; bounds were set here for any values at or beyond the usual limits of such assays; details: source organism: Shigella boydii
ATTRIBUTE_MEASURED: pKd
Note on units: pKd is unitless, being -log10 of a concentration expressed in mol/L.

Input: What does the data say about its pKd? Entry: KLPRWIFFA
Output: 6.02

###

molecular target: HLA-A*29:02; assay: IEDB peptide-MHC binding, purified MHC/competitive/radioactivity; filed as Kd, often an IC50 or EC50 that approximates it; bounds were set here for any values at or beyond the usual limits of such assays; conditions: source organism: Mammarenavirus lassaense
ATTRIBUTE_MEASURED: Kd

AAHSARPPPY 0.272 µM

Input: What does the data say about its Kd? Entry: VEIALYQPI
Output: ≥ 78.9 µM

Input: What does the data say about its Kd? Entry: IQNKLSSTF
Output: ≥ 35 µM

###

target: HLA-B*18:01; test: IEDB peptide-MHC binding, purified MHC/direct/fluorescence; filed as Kd, often an IC50 or EC50 that approximates it; bounds were set here for any values at or beyond the usual limits of such assays; conditions: source organism: Vibrio parahaemolyticus AQ3810
ATTRIBUTE_MEASURED: Kd

Input: What does the data say about its Kd? Entry: HQFTSNPEV
Output: ≥ 20 µM

###

biological target: HLA-B*44:03; assay: IEDB peptide-MHC binding, purified MHC/competitive/radioactivity; filed as Kd, often an IC50 or EC50 that approximates it; bounds were set here for any values at or beyond the usual limits of such assays; settings: source organism: Dengue virus 1 Brazil/97-11/1997
ATTRIBUTE_MEASURED: Kd (nM)
Your answer is read as nM, so omit the unit and give the number.

MEVQLIRQM 18.9

Input: Give HLA-B*44:03 Kd for GEKALKLSW
Output: 40.2

###

biological target: HLA-B*08:01; assay: IEDB peptide-MHC binding, purified MHC/competitive/fluorescence; bounds were set here for any values at or beyond the usual limits of such assays; details: source organism: Zaire ebolavirus
ATTRIBUTE_MEASURED: pIC50
Note on units: pIC50 is unitless, being -log10 of a concentration expressed in mol/L.

Input: What does the data say about its pIC50? Entry: HPLARTAKV
Output: 4.26

###

biological target: HLA-A*68:01; assay: IEDB peptide-MHC binding, purified MHC/competitive/radioactivity; filed as Kd, often an IC50 or EC50 that approximates it; bounds were set here for any values at or beyond the usual limits of such assays; settings: source organism: Dengue virus 2 Jamaica/1409/1983
Here, each record is paired with measured pKd data.
Note on units: pKd is unitless, being -log10 of a concentration expressed in mol/L.

These solved cases illustrate the format of a correct answer.
IAARGYISTR 7.92
ETTMRGAKR 7.45
VAAEMEEALR 6.89

Consider the record given below.
Input: What does the data say about its pKd? Entry: TTLSRTSKK
Output: 6.52

###

Here, each record is paired with measured Kd data.
molecular target: HLA-B*35:01; experiment: IEDB peptide-MHC binding, purified MHC/competitive/radioactivity; filed as Kd, often an IC50 or EC50 that approximates it; bounds were set here for any values at or beyond the usual limits of such assays; details: source organism: SARS coronavirus Tor2
Your answer is read as nM, so omit the unit and give the number.

LPVNVAFEL 1.89

Input: What does the data say about its Kd? Entry: SPNLAWPLIV
Output: 887

Input: What does the data say about its Kd? Entry: FPLCANGQVF
Output: 1.84

Input: What does the data say about its Kd? Entry: LPDDFMGCVL
Output: 353

Input: What does the data say about its Kd? Entry: MPILTLTRAL
Output: 13.7

###

target: HLA-A*68:02; assay: IEDB peptide-MHC binding, purified MHC/competitive/radioactivity; filed as Kd, often an IC50 or EC50 that approximates it; bounds were set here for any values at or beyond the usual limits of such assays; conditions: source organism: Vaccinia virus WR
ATTRIBUTE_MEASURED: pKd
Note on units: pKd is unitless, being -log10 of a concentration expressed in mol/L.

Input: Give HLA-A*68:02 pKd for MTIREFPRK
Output: 5.48

###

target: HLA-B*53:01; test: IEDB peptide-MHC binding, purified MHC/competitive/radioactivity; filed as Kd, often an IC50 or EC50 that approximates it; bounds were set here for any values at or beyond the usual limits of such assays; details: source organism: Dengue virus 1 Brazil/97-11/1997
Here, each record is paired with measured Kd data.
Your answer is read as µM, so omit the unit and give the number.

These solved cases illustrate the format of a correct answer.
PATLFVWYF 1.89
FPLCLSTTSQ 0.0363
LPDTIETLML 0.297

Consider the record given below.
Input: What does the data say about its Kd? Entry: IPQWEPSKGW
Output: 0.09

###

target: HLA-A*23:01; experiment: IEDB peptide-MHC binding, purified MHC/competitive/radioactivity; filed as Kd, often an IC50 or EC50 that approximates it; bounds were set here for any values at or beyond the usual limits of such assays; conditions: source organism: Dengue virus 1 Brazil/97-11/1997
ATTRIBUTE_MEASURED: Kd (µM)
Your answer is read as µM, so omit the unit and give the number.

These solved cases illustrate the format of a correct answer.
LWEGSPGKF 7.64
ISYGGGWRF 0.0587

Consider the record given below.
Input: What does the data say about its Kd? Entry: SYLAGAGLAF
Output: 0.00435

###

molecular target: HLA-A*01:01; test: IEDB peptide-MHC binding, purified MHC/competitive/fluorescence; filed as Kd, often an IC50 or EC50 that approximates it; bounds were set here for any values at or beyond the usual limits of such assays; settings: source organism: Homo sapiens
ATTRIBUTE_MEASURED: pKd
Note on units: pKd is unitless, being -log10 of a concentration expressed in mol/L.

Input: What does the data say about its pKd? Entry: YFEYIEENKY
Output: 5.81

###

Here, each record is paired with measured pKd data.
target: HLA-B*57:01; experiment: IEDB peptide-MHC binding, purified MHC/competitive/radioactivity; filed as Kd, often an IC50 or EC50 that approximates it; bounds were set here for any values at or beyond the usual limits of such assays; details: source organism: Dengue virus 1 Brazil/97-11/1997
Note on units: pKd is unitless, being -log10 of a concentration expressed in mol/L.

These solved cases illustrate the format of a correct answer.
ATGPLTTLW 8.80
ISYGGGWRF 8.94

Consider the record given below.
Input: What does the data say about its pKd? Entry: GGWRFQGSW
Output: 8.07

###

target: HLA-B*27:05; test: IEDB peptide-MHC binding, purified MHC/direct/fluorescence; filed as Kd, often an IC50 or EC50 that approximates it; bounds were set here for any values at or beyond the usual limits of such assays; conditions: source organism: Alkhumra hemorrhagic fever virus
ATTRIBUTE_MEASURED: Kd

Input: Give HLA-B*27:05 Kd for WPWNAREDV
Output: ≥ 20 µM

###

molecular target: HLA-B*18:01; test: IEDB peptide-MHC binding, purified MHC/direct/fluorescence; filed as Kd, often an IC50 or EC50 that approximates it; bounds were set here for any values at or beyond the usual limits of such assays; details: source organism: Cryptosporidium parvum
ATTRIBUTE_MEASURED: Kd

Input: What does the data say about its Kd? Entry: IINAHRIPK
Output: ≥ 20 µM

###

target: HLA-B*39:01; test: IEDB peptide-MHC binding, purified MHC/direct/fluorescence; filed as Kd, often an IC50 or EC50 that approximates it; bounds were set here for any values at or beyond the usual limits of such assays; conditions: source organism: Camelpox virus CMS
ATTRIBUTE_MEASURED: Kd

Input: What does the data say about its Kd? Entry: SSDDIPPRW
Output: ≥ 20 µM

###

target: HLA-A*02:12; assay: IEDB peptide-MHC binding, purified MHC/direct/fluorescence; filed as Kd, often an IC50 or EC50 that approximates it; bounds were set here for any values at or beyond the usual limits of such assays; conditions: source organism: Reston ebolavirus
pKd: −log10 of the molar value.
ATTRIBUTE_MEASURED: pKd

Input: What does the data say about its pKd? Entry: RRELSKEKL
Output: ≤ 4.70
